The measured values listed here are drawn from ChEMBL document CHEMBL3758148.

# target_desc: Muscarinic acetylcholine receptor M1 (Homo sapiens) (UniProt P11229)
# Sequence (P11229 whole entry): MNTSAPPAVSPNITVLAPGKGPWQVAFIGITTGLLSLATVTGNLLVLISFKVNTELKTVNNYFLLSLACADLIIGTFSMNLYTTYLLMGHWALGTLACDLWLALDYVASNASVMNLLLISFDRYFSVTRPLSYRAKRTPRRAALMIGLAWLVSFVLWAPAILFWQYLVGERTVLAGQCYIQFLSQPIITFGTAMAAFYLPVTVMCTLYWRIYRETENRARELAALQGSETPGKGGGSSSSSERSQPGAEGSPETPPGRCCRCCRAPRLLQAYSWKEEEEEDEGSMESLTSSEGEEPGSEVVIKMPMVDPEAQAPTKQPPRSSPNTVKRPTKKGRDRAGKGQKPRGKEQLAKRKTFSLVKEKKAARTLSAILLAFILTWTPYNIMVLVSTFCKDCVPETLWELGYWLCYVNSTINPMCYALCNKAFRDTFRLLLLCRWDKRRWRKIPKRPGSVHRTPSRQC
# assay_info: Displacement of [3H]NMS from human muscarinic M1 receptor expressed in CHO Flp-In cells after 1 hr by microbeta liquid scintillation counting-based radioligand binding assay
# Format: cell-based
value_kind: Kb
Answer as a quantity: numeral, then unit.

Sample records with Kb:
INSERT INTO results (compound, result) VALUES
  ('CCCCn1cc(-c2ccc(COc3ccccc3-c3ccn([C@H]4CCCC[C@@H]4O)c(=O)c3)cc2)cn1 (racemic)', '14 µM'),
  ('O=c1cc(-c2ccccc2NCc2ccc(-c3cccnc3)cc2)ccn1[C@H]1CCCC[C@@H]1O (racemic)', '21 µM'),
  ('Cn1cc(-c2ccc(COc3c(F)ccc(F)c3-c3ccn([C@H]4CCCC[C@@H]4O)c(=O)c3)cc2)cn1 (racemic)', '42 µM'),
  ('O=c1cc(-c2ccccc2OCc2ccc(Oc3ccccc3)cc2)ccn1[C@H]1CCCC[C@@H]1O (racemic)', '19 µM'),
  ('Cn1cc(-c2ccc(COc3ccccc3-c3ccn([C@H]4CCCC[C@@H]4O)c(=O)c3)cc2)cn1 (racemic)', '43 µM');

Q: GET /values?readout=Kb&item= COc1ccccc1COc1ccccc1-c1ccn([C@H]2CCCC[C@@H]2O)c(=O)c1 (racemic)
A: 30 µM

Q: // query Kb value for entry O=c1cc(-c2ccccc2OCc2ccc(F)cc2)ccn1[C@H]1CCCC[C@@H]1O (racemic)
A: 60 µM

Q: I have this compound here, O=c1cc(-c2ccccc2OCc2ccc(-c3nccs3)cc2)ccn1[C@H]1CCCC[C@@H]1O (racemic) , and I need its recorded Kb.
A: 11 µM

Q: Request the reported Kb associated with O=c1cc(-c2ccccc2OCc2ccc(-c3ncco3)cc2)ccn1[C@H]1CCCC[C@@H]1O (racemic)
A: 28 µM

Q: Would you kindly share the measured Kb for O=c1cc(-c2ccccc2OCc2ccc(-c3cn[nH]c3)cc2)ccn1[C@H]1CCCC[C@@H]1O (racemic) ?
A: 28 µM

Q: Given COC(=O)c1cccc(COc2ccccc2-c2ccn([C@H]3CCCC[C@@H]3O)c(=O)c2)c1 (racemic) , state its recorded Kb.
A: 100 µM

Q: Recorded Kb for O=c1cc(-c2ccccc2NCc2ccc(Br)cc2)ccn1[C@H]1CCCC[C@@H]1O (racemic) , please?
A: 45 µM

Q: Consider the compound shown here: O=c1cc(-c2ccccc2OCc2cccc(C(F)(F)F)c2)ccn1[C@H]1CCCC[C@@H]1O (racemic) What is its recorded Kb?
A: 30 µM

Q: GET /values?readout=Kb&item= CC(C)n1cc(-c2ccc(COc3ccccc3-c3ccn([C@H]4CCCC[C@@H]4O)c(=O)c3)cc2)cn1 (racemic)
A: 27 µM

Q: Any idea what its Kb is? The compound is Cn1cc(-c2ccc(COc3ccccc3-c3ccn([C@H]4CCCC[C@@H]4O)c(=O)c3)cn2)cn1 (racemic)
A: 32 µM

Q: Please give the measured Kb for this compound: Cn1cc(-c2ccc(COc3ccccc3-c3cc(=O)n([C@H]4CCCC[C@@H]4O)cn3)cc2)cn1 (racemic)
A: 13 µM

Q: May I ask what Kb has been recorded for O=c1cc(-c2ccccc2NCc2ccc(-c3ccccc3)cc2)ccn1[C@H]1CCCC[C@@H]1O (racemic) ?
A: 69 µM

Q: Which Kb value belongs to O=c1cc(-c2ccccc2OCc2ccc(-c3cncnc3)cc2)ccn1[C@H]1CCCC[C@@H]1O (racemic) ?
A: 35 µM

Q: What does the record list as Kb for O=c1cc(-c2ccccc2OCc2ccc(C(F)(F)F)cc2)ccn1[C@H]1CCCC[C@@H]1O (racemic) ?
A: 36 µM

Q: Reported Kb for CCn1cc(-c2ccc(COc3ccccc3-c3ccn([C@H]4CCCC[C@@H]4O)c(=O)c3)cc2)cn1 (racemic) : what is it?
A: 41 µM
